assay: rat paw carrageenan oedema test (anti-inflammatory activity); format: in vivo; conditions: rat, in vivo, po, 5 hours; read-out: Therapeutic index LD50/ED50
observed_property: selectivity ratio
Answer with the value's number alone.

// query Field request: selectivity ratio | item: COc1ccc2c(c1)c(CC(=O)O)c(C)n2C(=O)c1ccc(Cl)cc1 [Indomethacin, indomethacin]
// result 14.5
